Reference source for all entries: the OligoGym collection

- study.target: STYX
- measurement.protocol: pooled miR-30 sensor sort-seq; sequence = guide strand
- run.conditions: shRNA
The following sequences are listed with their measured sensor-assay potency score (higher = more potent) values.
Please give only the number in your answer, with no unit.

Prompt line: Any idea what its sensor-assay potency score (higher = more potent) is? The sequence is TAGAAATTCACACTCTATGATG
Response line: -0.976

Prompt line: Any idea what its sensor-assay potency score (higher = more potent) is? The sequence is TAAAATTTCCTGCATCTCTCGT
Response line: -0.395

Prompt line: Any idea what its sensor-assay potency score (higher = more potent) is? The sequence is TTCTGTAGTACAGGTAGCTTGC
Response line: -0.197

Prompt line: Any idea what its sensor-assay potency score (higher = more potent) is? The sequence is TTGCTTTTCATAGCAGATGAAT
Response line: -1.47

Prompt line: Any idea what its sensor-assay potency score (higher = more potent) is? The sequence is TTTCTGTAGTACAGGTAGCTTG
Response line: -1

Prompt line: Any idea what its sensor-assay potency score (higher = more potent) is? The sequence is TGTAGTACAGGTAGCTTGCTTT
Response line: -0.453

Prompt line: Any idea what its sensor-assay potency score (higher = more potent) is? The sequence is TAATACAAAATCTTCTTTCTTG
Response line: 0.259

Prompt line: Any idea what its sensor-assay potency score (higher = more potent) is? The sequence is TTGCTTCAATATTTTGTCGTAT
Response line: -0.787

Prompt line: Any idea what its sensor-assay potency score (higher = more potent) is? The sequence is TAAATATCTAAATAACTGCTGA
Response line: -0.29

---

- study.target: ADC
- measurement.protocol: pooled miR-30 sensor sort-seq; sequence = guide strand
- run.conditions: shRNA
value.kind: sensor-assay potency score (higher = more potent)
Please give only the number in your answer, with no unit.

{"ordered.residues": "TTGCATACTTGAACTACAGCGA", "measured.result": 0.563}
{"ordered.residues": "TGACACTCCAAACTTTAGGCTC", "measured.result": -0.511}
{"ordered.residues": "TTCAGTGACACTCCAAACTTTA", "measured.result": -0.979}

Prompt line: Any idea what its sensor-assay potency score (higher = more potent) is? The sequence is TTTCAGTGACACTCCAAACTTT
Response line: -0.644

Prompt line: Any idea what its sensor-assay potency score (higher = more potent) is? The sequence is ATGTTGTCAAAGACCAGCCAGT
Response line: -1.56

---

- study.target: CBR1
- measurement.protocol: pooled miR-30 sensor sort-seq; sequence = guide strand
- run.conditions: shRNA
The following sequences are listed with their measured sensor-assay potency score (higher = more potent) values.
Please give only the number in your answer, with no unit.

Take a look at these entries with their results.
{"ordered.residues": "TAATTCTGTGCACACATCTCGG", "measured.result": -0.638}
{"ordered.residues": "TAAGAGATCATTTTTTTTCTTA", "measured.result": 0.534}
{"ordered.residues": "TTATTAGAGGGAGTAATTCTGT", "measured.result": -0.254}
{"ordered.residues": "TTAGTAGTACATTAGTGAGTGC", "measured.result": -0.244}
{"ordered.residues": "TCAGTGATGGTCTCACTGCGGA", "measured.result": -1.01}
{"ordered.residues": "TTCTCTGAAACAAATTGTCCAT", "measured.result": -0.572}

Prompt line: Any idea what its sensor-assay potency score (higher = more potent) is? The sequence is ATCGTCGATGTCCAGCTGGTGG
Response line: -1.35

Prompt line: Any idea what its sensor-assay potency score (higher = more potent) is? The sequence is TCTCTGAAACAAATTGTCCATG
Response line: -1.29

Prompt line: Any idea what its sensor-assay potency score (higher = more potent) is? The sequence is TTGTTTTCATCGTCACTTCAGC
Response line: -0.315

Prompt line: Any idea what its sensor-assay potency score (higher = more potent) is? The sequence is TTTGTTTTCATCGTCACTTCAG
Response line: 0.571

---

- study.target: LCE2C
- measurement.protocol: pooled miR-30 sensor sort-seq; sequence = guide strand
- run.conditions: shRNA
The following sequences are listed with their measured sensor-assay potency score (higher = more potent) values.
Please give only the number in your answer, with no unit.

Prompt line: Any idea what its sensor-assay potency score (higher = more potent) is? The sequence is AGCAAGAAGAGACTGCAGGGAA
Response line: -0.624

Prompt line: Any idea what its sensor-assay potency score (higher = more potent) is? The sequence is TCACTCTCACAGCAGTCGGGGC
Response line: -1.13

Prompt line: Any idea what its sensor-assay potency score (higher = more potent) is? The sequence is TGGTGGCTCAGGGAGCAGCCAC
Response line: -2.45

---

- study.target: PSIP1
- measurement.protocol: pooled miR-30 sensor sort-seq; sequence = guide strand
- run.conditions: shRNA
The following sequences are listed with their measured sensor-assay potency score (higher = more potent) values.
Please give only the number in your answer, with no unit.

Take a look at these entries with their results.
{"ordered.residues": "TTGAAAATATGCTACAACCATG", "study.target": "PSIP1", "measured.result": -1.01}
{"ordered.residues": "TTAATCTCAGCATGTATCCTTT", "study.target": "PSIP1", "measured.result": 0.197}
{"ordered.residues": "TTAGTCACATCCTCATTGCTGG", "study.target": "PSIP1", "measured.result": 0.128}
{"ordered.residues": "TTCATGGTCGGTATCTTCCTTT", "study.target": "PSIP1", "measured.result": -0.126}
{"ordered.residues": "TTATACAACATTGTAGACTTTT", "study.target": "PSIP1", "measured.result": -0.451}

Then there is this sequence:
Prompt line: Which measured sensor-assay potency score (higher = more potent) belongs to TTCAACATCAAACCTATGCTTA , tested on PSIP1?
Response line: 0.354

---

The following sequences are listed with their measured sensor-assay potency score (higher = more potent) values.
- study.target: MKNK2
- measurement.protocol: pooled miR-30 sensor sort-seq; sequence = guide strand
- run.conditions: shRNA

Take a look at these entries with their results.
{"ordered.residues": "TTATGCAGAAAGTCCAAGGCGC", "measured.result": -0.181}
{"ordered.residues": "TCCAGCTCGTTGAAGTGCCGGC", "measured.result": -1.11}
{"ordered.residues": "TTTGTTATGCAGAAAGTCCAAG", "measured.result": -0.811}
{"ordered.residues": "TTCCTCTGCAGGACCATGGGAG", "measured.result": -0.448}
{"ordered.residues": "TTGAGTTTGATGCCGCTGCCCA", "measured.result": -0.98}

Prompt line: Which measured sensor-assay potency score (higher = more potent) belongs to TAGGACGTTCCTGTGTCCCTGG , tested on MKNK2?
Response line: 0.366

---

- study.target: ALOX12B
- measurement.protocol: pooled miR-30 sensor sort-seq; sequence = guide strand
- run.conditions: shRNA
The following sequences are listed with their measured sensor-assay potency score (higher = more potent) values.
Please give only the number in your answer, with no unit.

Take a look at these entries with their results.
{"ordered.residues": "AACTTGTCTGGGATCCGCGTGC", "study.target": "ALOX12B", "measured.result": 0.172}
{"ordered.residues": "TGCACATAGTTGCAGTACCAAG", "study.target": "ALOX12B", "measured.result": -2.04}
{"ordered.residues": "TATAGTGACATATCGGATCAGC", "study.target": "ALOX12B", "measured.result": -0.0361}
{"ordered.residues": "TCACATACTTCTCCAGTGCATT", "study.target": "ALOX12B", "measured.result": -1.5}
{"ordered.residues": "TCATTGAGGAGAACGGCCCGGC", "study.target": "ALOX12B", "measured.result": 0.146}
{"ordered.residues": "TTAAAGTTGATGAGAATTGGGA", "study.target": "ALOX12B", "measured.result": -0.16}
{"ordered.residues": "TAATAGGTGATGATCTCCGTCA", "study.target": "ALOX12B", "measured.result": -0.427}
{"ordered.residues": "ATAATAGGTGATGATCTCCGTC", "study.target": "ALOX12B", "measured.result": -0.228}

Then there is this sequence:
Prompt line: Any idea what its sensor-assay potency score (higher = more potent) is? The sequence is TACTTCTCCAGTGCATTCCACA
Response line: -0.953

---

- study.target: IGLL1
- measurement.protocol: pooled miR-30 sensor sort-seq; sequence = guide strand
- run.conditions: shRNA
value.kind: sensor-assay potency score (higher = more potent)
Please give only the number in your answer, with no unit.

{"ordered.residues": "TTGGGCTGACTTAAAACGGTGA", "measured.result": -0.209}

Prompt line: Any idea what its sensor-assay potency score (higher = more potent) is? The sequence is TCACCGTCAAGATTCCCGGATA
Response line: -1.01

Prompt line: Any idea what its sensor-assay potency score (higher = more potent) is? The sequence is TGGACCGGCTGCTTCCTCCAGG
Response line: -1.11
